target: LPA1R (Homo sapiens, UniProt Q92633); assay: Calcium flux assay: inhibition of LPA-stimulated Ca2+ flux (FLIPR, antagonist mode); settings: LPA1R Ca2+ flux functional assay, LPA1R expressing cells challenged with EC80 of LPA, read-out: LPA1 R Antagonist Activity
Sequence (Q92633 whole entry): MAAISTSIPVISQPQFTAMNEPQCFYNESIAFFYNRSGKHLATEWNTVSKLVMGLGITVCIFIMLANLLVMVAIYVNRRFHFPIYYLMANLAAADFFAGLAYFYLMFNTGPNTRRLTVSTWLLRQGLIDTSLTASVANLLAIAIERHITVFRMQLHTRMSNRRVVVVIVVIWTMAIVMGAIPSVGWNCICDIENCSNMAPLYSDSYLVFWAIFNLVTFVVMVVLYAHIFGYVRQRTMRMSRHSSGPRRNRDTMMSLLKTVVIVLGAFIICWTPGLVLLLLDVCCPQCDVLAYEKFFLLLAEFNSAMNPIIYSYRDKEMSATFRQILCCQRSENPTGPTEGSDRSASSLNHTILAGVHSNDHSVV
pIC50: −log10 of the molar value.

compound	pIC50
C[C@@H](OC(=O)Nc1c(F)cnn1-c1ccc(-c2ccc(C3(C(=O)NS(C)(=O)=O)CC3)cc2)cc1)c1ccccc1Cl [Compound 20]	> 6.52
C[C@@H](OC(=O)Nc1c(F)cnn1-c1ccc(-c2ccc(C3(C(=O)O)CC3)c(F)c2)cc1)c1ccccc1 [Compound 7]	> 6.52
C[C@@H](OC(=O)Nc1c(Cl)cnn1-c1ccc(-c2ccc(C3(C(=O)O)CC3)cc2F)cc1)c1ccccc1 [Compound 10]	> 6.52
C[C@@H](OC(=O)Nc1c(F)cnn1-c1ccc(-c2ccc(C3(c4nnn[nH]4)CC3)cc2)cc1)c1ccccc1Cl [Compound 21]	4.30 to 6.00
C[C@@H](OC(=O)Nc1c(Cl)cnn1-c1ccc(-c2ccc(C3(c4nnn[nH]4)CC3)cc2)cc1)c1ccccc1Cl [Compound 23]	4.30 to 6.00
